The reported measurements were obtained from the NIST ThermoML archive (doi:10.1016/j.jct.2013.08.013).

- condition-label: 308.15 K; 101 kPa; Liquid; Frequency=2 MHz; Linear variable-path acoustic interferometer
measurement-name: speed of sound (m/s)

• Cc1ccccc1Cl [2-chlorotoluene] = 1265.6
• CCCCCO [pentan-1-ol] = 1248.1
• CCCCCCO [hexan-1-ol] = 1269.7
